- Target System: Adenosine receptor A1 (Homo sapiens, UniProt P30542)
- Sequence (P30542 whole entry): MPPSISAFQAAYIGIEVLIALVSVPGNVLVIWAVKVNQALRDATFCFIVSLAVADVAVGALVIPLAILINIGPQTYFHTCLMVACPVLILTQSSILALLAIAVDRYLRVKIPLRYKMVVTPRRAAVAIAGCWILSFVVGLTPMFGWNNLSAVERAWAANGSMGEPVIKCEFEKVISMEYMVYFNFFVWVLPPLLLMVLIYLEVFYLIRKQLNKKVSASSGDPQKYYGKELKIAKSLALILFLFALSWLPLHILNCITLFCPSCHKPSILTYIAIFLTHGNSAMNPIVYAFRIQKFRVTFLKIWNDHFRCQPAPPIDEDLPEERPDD
- Assay Protocol: Antagonist activity at recombinant human adenosine A1 receptor transfected in CHO cells assessed as inhibition of CCPA-induced cAMP accumulation preincubated for 10 mins followed by CCPA addition by GloSensor cAMP assay
- Type: functional, cell-based
Measured IC50 of individual entries
Kindly provide the numeric value in nM only, without the unit symbol.

- Cn1c(-c2ccc(F)cc2)nc2c(NC3CCCC3)ncnc21: 32
- Cn1c(-c2ccc(O)cc2)nc2c(NC3CCCC3)ncnc21: 52
- Cc1cccc(-c2nc3c(NC4CCCC4)ncnc3n2C)c1: 43
- Cn1c(-c2ccccc2)nc2c(NC3CCCC3)ncnc21: 14

// below: IC50 requested for another molecule
The recorded IC50 for `Cc1ccc(-c2nc3c(NC4CCCC4)ncnc3n2C)cc1` is 61

---

Measured Ratio Ki of individual entries
- Species on record: Homo sapiens
- Assay Protocol: Selectivity index, ratio of Ki for recombinant human adenosine A2A receptor to Ki for recombinant human adenosine A1 receptor
Just the number, please, no unit attached.

Examples from the recorded data:
* CCCn1c(-c2ccccc2)nc2c(NC3CCOC3)ncnc21 (stereo unspecified) | 68
* CCCn1c(-c2ccccc2)nc2c(N)ncnc21 | 5
* CCCn1c(-c2ccccc2)nc2c(NC3CCC3)ncnc21 | 24
* Cc1ccc(-c2nc3c(NC4CCCC4)ncnc3n2C)cc1 | 225
* Cn1c(-c2ccccc2)nc2c(NC3CCCC3)ncnc21 | 178
* Cn1c(-c2ccc(O)cc2)nc2c(NC3CCCC3)ncnc21 | 31
* COc1ccc(-c2nc3c(NC4CCCC4)ncnc3n2C)cc1 | 24
* Cn1c(-c2ccccc2)nc2c(NC3CCC3)ncnc21 | 95

// below: Ratio Ki requested for another compound
The recorded Ratio Ki for `CCn1c(-c2ccccc2)nc2c(NC3CCCCC3)ncnc21` is 31

---

- Target System: UniProt P30542
- Assay Protocol: Displacement of [3H]CCPA from recombinant human adenosine A1 receptor transfected in CHO cell membranes after 3 hrs by microbeta scintillation counting analysis
pKi: −log10 of the molar value.
Kind request: treat 8 as inclusive, so pKi at 8 or higher is true, anything lower is false.

- Cn1c(-c2ccc(C(=O)O)cc2)nc2c(NC3CCCC3)ncnc21: false

Data request: Answer whether pKi of `Cn1c(-c2ccccc2)nc2c(NC3CCCC3)ncnc21` is greater than or equal to 8.
Data returned: true

Data request: Answer whether pKi of `Cn1c(-c2ccc(Cl)cc2)nc2c(NC3CCCC3)ncnc21` is greater than or equal to 8.
Data returned: false

Data request: Answer whether pKi of `Cc1ccccc1-c1nc2c(NC3CCCC3)ncnc2n1C` is greater than or equal to 8.
Data returned: false

Data request: Answer whether pKi of `CCn1c(-c2ccccc2)nc2c(NC3CCCC3)ncnc21` is greater than or equal to 8.
Data returned: true

Data request: Answer whether pKi of CCCn1c(-c2ccccc2)nc2c(NC3CCOC3)ncnc21 (centres undefined) is greater than or equal to 8.
Data returned: false

Data request: Answer whether pKi of `Cn1c(-c2ccccc2)nc2c(NC3CCCCC3)ncnc21` is greater than or equal to 8.
Data returned: true

---

- Target System: Adenosine receptor A2b (Homo sapiens, UniProt P29275)
- Sequence (P29275 whole entry): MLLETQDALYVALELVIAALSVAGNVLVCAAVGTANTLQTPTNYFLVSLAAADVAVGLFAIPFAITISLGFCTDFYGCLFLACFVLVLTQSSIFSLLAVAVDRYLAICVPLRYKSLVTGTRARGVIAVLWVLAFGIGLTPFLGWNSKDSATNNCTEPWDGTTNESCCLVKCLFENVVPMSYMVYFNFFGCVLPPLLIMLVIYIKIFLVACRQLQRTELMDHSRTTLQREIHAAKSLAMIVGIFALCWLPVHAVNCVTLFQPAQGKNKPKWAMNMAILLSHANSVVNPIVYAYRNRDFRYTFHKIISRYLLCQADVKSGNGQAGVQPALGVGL
- Assay Protocol: Antagonist activity at recombinant human adenosine A2B receptor expressed in CHO cells assessed as inhibition of NECA-induced adenylyl cyclase activity after 20 mins by [alpha-32P]ATP assay
Exam item: assign Fulfilled to entries whose Ki is below 5 µM and Not fulfilled to entries at or above 5 µM. Note that a value of exactly 5 µM receives Not fulfilled.

Before answering, review these 3 worked examples.
- CCCn1c(-c2ccccc2)nc2c(NC3CCC3)ncnc21: Fulfilled
- CCCn1c(-c2ccccc2)nc2c(NC3CCOC3)ncnc21 (configuration not stated): Not fulfilled
- Cn1c(-c2ccc(F)cc2)nc2c(NC3CCCC3)ncnc21: Not fulfilled

Data request: Does this molecule meet the criterion Ki < 5 µM? `CCCn1c(-c2ccccc2)nc2c(NC3CCCCC3)ncnc21`
Data returned: Not fulfilled

Data request: Does this molecule meet the criterion Ki < 5 µM? `CCCn1c(-c2ccccc2)nc2c(N)ncnc21`
Data returned: Fulfilled

Data request: Does this molecule meet the criterion Ki < 5 µM? `CCn1c(-c2ccccc2)nc2c(NC3CCC3)ncnc21`
Data returned: Fulfilled

Data request: Does this molecule meet the criterion Ki < 5 µM? `Cc1ccc(-c2nc3c(NC4CCCC4)ncnc3n2C)cc1`
Data returned: Not fulfilled

Data request: Does this molecule meet the criterion Ki < 5 µM? `Cn1c(-c2ccccc2)nc2c(NC3CCC3)ncnc21`
Data returned: Fulfilled

Data request: Does this molecule meet the criterion Ki < 5 µM? `Cn1c(-c2ccccc2)nc2c(NC3CCCCC3)ncnc21`
Data returned: Not fulfilled

Data request: Does this molecule meet the criterion Ki < 5 µM? `CCn1c(-c2ccccc2)nc2c(NC3CCCC3)ncnc21`
Data returned: Not fulfilled

Data request: Does this molecule meet the criterion Ki < 5 µM? `Cn1c(-c2ccc(O)cc2)nc2c(NC3CCCC3)ncnc21`
Data returned: Not fulfilled

Data request: Does this molecule meet the criterion Ki < 5 µM? `CCCn1c(-c2ccccc2)nc2c(NC3CCCC3)ncnc21`
Data returned: Fulfilled

---

- Target System: Adenosine receptor A3 (Homo sapiens, UniProt P0DMS8)
- Sequence (P0DMS8 whole entry): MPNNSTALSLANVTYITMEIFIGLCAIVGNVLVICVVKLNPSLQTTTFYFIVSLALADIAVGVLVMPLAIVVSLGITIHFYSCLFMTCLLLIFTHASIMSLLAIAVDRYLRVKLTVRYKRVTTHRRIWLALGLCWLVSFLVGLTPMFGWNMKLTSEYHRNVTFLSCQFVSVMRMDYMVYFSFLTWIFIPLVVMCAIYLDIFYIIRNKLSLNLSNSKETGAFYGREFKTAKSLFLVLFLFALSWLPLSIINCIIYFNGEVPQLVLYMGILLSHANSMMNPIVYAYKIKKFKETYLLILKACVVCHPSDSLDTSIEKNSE
- Assay Protocol: Displacement of [3H]NECA from recombinant human adenosine A3 receptor transfected in CHO cell membranes after 3 hrs by microbeta scintillation counting analysis
Exam item: assign met to entries whose Ki is below 700 nM and not met to entries at or above 700 nM. Note that a value of exactly 700 nM receives not met.

Data request: Does this compound meet the criterion Ki < 700 nM? `Cn1c(-c2cccnc2)nc2c(NC3CCCC3)ncnc21`
Data returned: not met

Data request: Does this compound meet the criterion Ki < 700 nM? `COc1ccc(-c2nc3c(NC4CCCC4)ncnc3n2C)cc1`
Data returned: not met

Data request: Does this compound meet the criterion Ki < 700 nM? `CCCn1c(-c2ccccc2)nc2c(NC3CCCC3)ncnc21`
Data returned: not met

---

- Target System: Adenosine receptors; A1 & A3 (Homo sapiens) (UniProt P30542+P0DMS8)
- Assay Protocol: Selectivity index, ratio of Ki for recombinant human adenosine A3 receptor to Ki for recombinant human adenosine A1 receptor
Classification by Ratio Ki | ranges: low band = under 60, middle band = from 60 up to 90, high band = 90 and over

• Cn1c(-c2cccnc2)nc2c(NC3CCCC3)ncnc21 = low band
• Cn1c(-c2ccc(O)cc2)nc2c(NC3CCCC3)ncnc21 = low band
• CCn1c(-c2ccccc2)nc2c(NC3CCOC3)ncnc21 (stereo unspecified) = high band
• Cc1ccccc1-c1nc2c(NC3CCCC3)ncnc2n1C = low band
• Cn1c(-c2ccc(F)cc2)nc2c(NC3CCCC3)ncnc21 = high band

Data request: Quick check: band for `CCCn1c(-c2ccccc2)nc2c(NC3CCCC3)ncnc21`
Data returned: middle band

---

- Target System: Adenosine receptor A3 (Homo sapiens)
- Sequence (P0DMS8 whole entry): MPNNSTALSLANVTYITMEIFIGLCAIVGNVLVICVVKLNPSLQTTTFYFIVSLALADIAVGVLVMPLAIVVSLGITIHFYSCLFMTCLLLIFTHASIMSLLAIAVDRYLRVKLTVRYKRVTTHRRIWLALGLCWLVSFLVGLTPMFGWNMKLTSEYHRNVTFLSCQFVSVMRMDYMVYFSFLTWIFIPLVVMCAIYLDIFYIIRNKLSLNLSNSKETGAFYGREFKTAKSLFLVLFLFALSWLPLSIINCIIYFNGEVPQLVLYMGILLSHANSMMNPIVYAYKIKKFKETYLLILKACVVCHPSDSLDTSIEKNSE
- Assay Protocol: Displacement of [3H]NECA from recombinant human adenosine A3 receptor transfected in CHO cell membranes after 3 hrs by microbeta scintillation counting analysis
Exam item: assign t to entries whose Ki is below 500 nM and f to entries at or above 500 nM. Note that a value of exactly 500 nM receives f.

* CCCn1c(-c2ccccc2)nc2c(N)ncnc21 | f
* Cn1c(-c2ccc(C(=O)O)cc2)nc2c(NC3CCCC3)ncnc21 | f
* Cn1c(-c2ccccc2)nc2c(NC3CCC3)ncnc21 | t
* Cn1c(-c2ccc(O)cc2)nc2c(NC3CCCC3)ncnc21 | f
* CCn1c(-c2ccccc2)nc2c(NC3CCC3)ncnc21 | t

# ---- query compound ----
Data request: Does this compound meet the criterion Ki < 500 nM? `Cc1ccccc1-c1nc2c(NC3CCCC3)ncnc2n1C`
Data returned: f
